target: T1, human CLDN18.2 (human); experiment: FACS, NUGC-4 cells (natural CLDN18.2)
T1 construct: also called claudin18.2
measurementLabel: EC50 (nM)
State just the number; it will be interpreted in nM.

Worked examples follow.
binder | valueMeasured
humanized antibody hz40F6-1.1 (antibody, human IgG1, kappa, V domains shown) VH: QVQLVESGGGVVQPGRSLRLSCAASGFTLTSYGVYWVRQAPGKGLEWVAVVWAGGNTNYADSVKGRFTISKDNSKSTLYLQMNSLRAEDTAVYYCARDRGRLLAMDYWGQGTLVTVSS VL: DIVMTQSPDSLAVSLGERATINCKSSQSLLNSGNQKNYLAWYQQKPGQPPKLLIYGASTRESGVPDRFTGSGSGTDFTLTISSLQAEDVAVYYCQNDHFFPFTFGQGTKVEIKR | 20
humanized antibody hz40F6-2.2 (antibody, human IgG1, kappa, V domains shown) VH: QVQLVESGGGVVQPGRSLRLSCAASGFTLTSYGVYWVRQAPGKGLEWVAVVWAGGNTNYNSALMSRFTISKDNSKSTLYLQMNSLRAEDTAVYYCARDRGRLLAMDYWGQGTLVTVSS VL: DIVMTQSPDSLAVSLGERATINCKSSQSLLNSGNQKNYLAWYQQKPGQPPKLLIYGASTRESGVPDRFSGSGSGTDFTLTISSLQAEDVAVYYCQNDYFFPFTFGQGTKVEIKR | 14.9
IMAB362 (antibody, human IgG1, kappa, V domains shown, Positive control, prepared in-house; also called Claudiximab; TMAB362 [sic]) VH: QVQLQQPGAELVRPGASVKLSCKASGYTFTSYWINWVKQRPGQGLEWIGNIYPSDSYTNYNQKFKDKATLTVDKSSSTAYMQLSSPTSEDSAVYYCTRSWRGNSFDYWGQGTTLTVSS VL: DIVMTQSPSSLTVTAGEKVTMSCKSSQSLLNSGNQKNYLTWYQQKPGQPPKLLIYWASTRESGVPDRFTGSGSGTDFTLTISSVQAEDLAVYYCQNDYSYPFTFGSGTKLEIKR | 567
humanized antibody hz40F6-1.4 (antibody, human IgG1, kappa, V domains shown) VH: QVQLVESGGGVVQPGRSLRLSCTVSGFTLTSYGVYWVRQAPGKGLEWVAVVWAGGNTNYNSALKGRFTISKDNSKSTLYLQMNSLRAEDTAVYYCARDRGRLLAMDYWGQGTLVTVSS VL: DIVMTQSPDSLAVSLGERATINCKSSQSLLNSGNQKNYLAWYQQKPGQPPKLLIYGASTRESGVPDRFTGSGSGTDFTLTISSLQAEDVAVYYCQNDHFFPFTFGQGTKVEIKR | 10.6

In: Using the record for chimeric antibody xi40F6 (antibody, human IgG1, kappa, V domains shown, Mouse variable regions on human IgG1/kappa; defucosylated, expressed in FUT8-knockout CHO-S cells; also called chimeric 40F6) VH: QVQLKESGPGLVAPSQSLSITCTVSGFSLTSYGVYWVRQSPGKGLEWLGVVWAGGNTNYNSALMSRLSISKDNSKSQVFLKMNSLQTDDTAMYYCARDRGRLLAMDYWGQGTSVTVSS VL: DVVMTQSPSSLSVSAGEKVTMSCKSSQSLLNSGNQKNYLAWYQQKPGQPPKLLIYGASTRESGVPDRFTGSGSGTDFTLTISSVQAEDLAVYYCQNDHFFPFTFGSGTKLEIKR , report its EC50.
Out: 12.5

Values compiled from patent US20240409629A1.
